From: patent US6274715A

- System: STREPTOCOCCUS PYOGENES EES61
- test.details: In vitro antibacterial activity, MIC, BHI agar dilution
- Type: cell-based
- experimental.context: S. pyogenes EES61, unit assumed
measure.name: MIC (µg/mL)
State the answer as a number, implicitly in µg/mL.

See these solved cases before continuing.
molecule	result.unit	MIC
CC[C@H]1OC(=O)[C@H](C)C(=O)[C@H](C)[C@@H](O[C@@H]2O[C@H](C)C[C@H](N(C)C)[C@H]2O)[C@](C)(OC)C[C@@H](C)C2=NC3CN(CCc4ccc([N+](=O)[O-])cc4)CC3N3C(=O)O[C@@]1(C)[C@H]3[C@H]2C (some centres unmarked) [Example 118]	µg/mL	0.05
CC[C@H]1OC(=O)[C@H](C)C(=O)[C@H](C)[C@@H](O[C@@H]2O[C@H](C)C[C@H](N(C)C)[C@H]2O)[C@](C)(OC)C[C@@H](C)C2=NC[C@H](Cc3cscn3)N3C(=O)O[C@@]1(C)[C@H]3[C@H]2C [Example 69]	µg/mL	0.02
CC[C@H]1OC(=O)[C@H](C)C(=O)[C@H](C)[C@@H](O[C@@H]2O[C@H](C)C[C@H](N(C)C)[C@H]2O)[C@](C)(OC)C[C@@H](C)C2=NC3CN(C)CC3N3C(=O)O[C@@]1(C)[C@H]3[C@H]2C (some centres unmarked) [Example 114]	µg/mL	0.05
CC[C@H]1OC(=O)[C@H](C)C(=O)[C@H](C)[C@@H](O[C@@H]2O[C@H](C)C[C@H](N(C)C)[C@H]2O)[C@](C)(OC)C[C@@H](C)C2=NC[C@H](CSCc3ccccc3)N3C(=O)O[C@@]1(C)[C@H]3[C@H]2C [Example 66]	µg/mL	0.01

Complete the entry with MIC for CC[C@H]1OC(=O)[C@H](C)C(=O)[C@H](C)[C@@H](O[C@@H]2O[C@H](C)C[C@H](N(C)C)[C@H]2O)[C@](C)(OC)C[C@@H](C)C2=NC[C@H](COCc3ccc(OC)cc3)N3C(=O)O[C@@]1(C)[C@H]3[C@H]2C [Example 62]
0.1

Tell me its MIC given CC[C@H]1OC(=O)[C@H](C)C(=O)[C@H](C)[C@@H](O[C@@H]2O[C@H](C)C[C@H](N(C)C)[C@H]2O)[C@](C)(OC)C[C@@H](C)C2=N[C@@H]3CN(Cc4ccccc4)C[C@@H]3N3C(=O)O[C@@]1(C)[C@H]3[C@H]2C [Example 21] as the entry.
0.01

// Input: CC[C@H]1OC(=O)[C@H](C)C(=O)[C@H](C)[C@@H](O[C@@H]2O[C@H](C)C[C@H](N(C)C)[C@H]2O)[C@](C)(OC)C[C@@H](C)C2=NC3CN(CCc4cccc([N+](=O)[O-])c4)CC3N3C(=O)O[C@@]1(C)[C@H]3[C@H]2C (some centres unmarked) [Example 120] . Output its MIC only.
0.01

====

Each entry below lists one item and its recorded MIC value.
- Tested on: STAPHYLOCOCCUS AUREUS CMX 642A
- test.details: In vitro antibacterial activity, MIC, BHI agar dilution
- Assay type: cell-based
- experimental.context: S. aureus CMX 642A, unit assumed
Write the answer as a number in µg/mL, unit excluded.

compound	target	MIC [µg/mL]
CC[C@H]1OC(=O)[C@H](C)C(=O)[C@H](C)[C@@H](O[C@@H]2O[C@H](C)C[C@H](N(C)C)[C@H]2O)[C@](C)(OC)C[C@@H](C)C2=NCC(COC(=O)c3ccnc4ccccc34)N3C(=O)O[C@@]1(C)[C@H]3[C@H]2C (some centres unmarked) [Example 137]	STAPHYLOCOCCUS AUREUS CMX 642A	0.05

Continue with the next compound.
// Input: CC[C@H]1OC(=O)[C@H](C)C(=O)[C@H](C)[C@@H](O[C@@H]2O[C@H](C)C[C@H](N(C)C)[C@H]2O)[C@](C)(OC)C[C@@H](C)C2=NC[C@H](Cc3ccc(OCc4ccccc4)cc3)N3C(=O)O[C@@]1(C)[C@H]3[C@H]2C [Example 64] . Output its MIC only.
0.39
